Taken from paper PMC9947658.

Measured Target: Escherichia coli 30S ribosomal subunits (E. coli)
Assay Protocol: ITC; control experiment: IF1 and 30S subunits, at low temperature, under comparable conditions; ITC buffer
Property: pKd
Entry type: numeric. Quantity: pKd, the -log10 of concentration in molar units.

Q: Which pKd value is on record for initiation factor IF1 (natural protein) MAKEDNIEMQGTVLETLPNTMFRVELENGHVVTAHISGKMRKNYIRILTGDKVTVELTPYDLSKGRIVFRSR ?
A: 6.09
